Source: PubChem BioAssay AID488789

- assayedSystem: Trypsin (Sus scrofa)
- assayDetails: porcine trypsin inhibitors, dose response, selectivity assay for Rce1 protease inhibitor project, biochemical, quenched peptide fluorescence, cherry-pick (AID 488789);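 further: more negative means stronger trypsin inhibition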
- runParameters: quenched peptide cleavage fluorescence; series mostly up to 10 µM
Measured potencies and affinities stand elsewhere. Results filed as inconclusive are left out. Calls of active or inactive are those of the source.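 How the source made its calls: active means samples whose fitted half-maximal inhibition concentration is no more than ten times the top valid dose tested; inconclusive means flat response between -70 and -30, or invalid curve fit; inactive means flat within 30 of zero, potency above limit, or signal rising.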
assayEndpoint: outcome

Some entries whose results are on file:
{"compound": "Cc1cc(C)n(-c2nc3ccccc3c(=O)n2OCC(=O)N(C)C)n1", "outcome": "inactive"}
{"compound": "COc1ccccc1/C=C/C=N/NC(=O)CN1CCN(S(=O)(=O)c2ccc(C)cc2)CC1", "outcome": "inactive"}
{"compound": "O=C(c1cc(-c2ccccc2)nc2ccccc12)N1CCN(c2ccccn2)CC1", "outcome": "inactive"}
{"compound": "COc1ccc(NS(=O)(=O)c2c(C)cc(C)cc2C)cc1", "outcome": "inactive"}

## Input outcome lookup needed for Cc1cccc(NC(=O)C2(c3ccc([N+](=O)[O-])cc3)CCCC2)c1 , thanks.
## Output inactive

## Input Param item: O=C(O)CCCC[C@@H]1SC[C@@H]2NC(=O)N[C@@H]21
## Output inactive

## Input Param item: FC(F)(F)c1cc(Oc2ccccc2)ncc1-c1nnc(-c2ccccc2Cl)o1
## Output inactive

## Input Param item: O=C(O)CCc1ccc(-c2cccs2)n1Cc1ccco1
## Output inactive

## Input Param item: CC(C)c1cccc(OCC(=O)Nc2ccc(S(=O)(=O)Nc3ccccn3)cc2)c1
## Output inactive

## Input Param item: COc1ccc(CCN(C)C(=O)c2ccc(S(=O)(=O)Nc3ccccc3C)cc2)cc1OC
## Output inactive

## Input Param item: O=C(/C=C/c1cn(-c2ccccc2)nc1-c1cccs1)NCCN1CCOCC1
## Output inactive

## Input Param item: COc1ccccc1-c1nnc2sc(-c3ccc(N(C)C)cc3)nn12
## Output inactive

## Input Param item: Cc1ccc(-c2csc(N3CCN(c4cc5c(cc4Cl)nc(-c4ccncc4)n5CCOCCO)CC3)n2)cc1
## Output inactive

## Input Param item: CCOC(=O)[C@@H]1[C@H]2COc3ccc(Br)cc3[C@@H]2N2C(=O)N(c3cccc(Cl)c3)C(=O)[C@]12C
## Output inactive

## Input Param item: COc1ccc(/C=N/NC(=O)c2ccc(Cl)cc2)cc1COC(C)=O
## Output inactive
